// data source = patent US8815210B2

Test: Partition coefficient between octanol and water
Format: physicochemical
Details: n-octanol/water
ASSAY_READOUT: logP
// response body must contain only the number

Exam item: Complete the entry with logP for CC(=O)N(CC(O)CN(C(C)=O)c1c(I)c(C(=O)NCC(O)CO)c(I)c(C(=O)NCC(O)CO)c1I)c1c(I)c(C(=O)NCC(O)CO)c(I)c(C(=O)NCC(O)CO)c1I (centres unmarked) [iodixanol, reference compound]
Marked response: -4.02

Exam item: Complete the entry with logP for O=CN(CC(O)CN(C=O)c1c(I)c(C(=O)NCC(O)CO)c(I)c(C(=O)NCC(O)CO)c1I)c1c(I)c(C(=O)NCC(O)CO)c(I)c(C(=O)NCC(O)CO)c1I (centres unmarked)
Marked response: -4.28
